Measured EC50, listed per entry for reference.
System Name: GAL4 DBD (1-147)-CfEcR(DEF)/VP16AD-βRXREF-LmUSPEF (Choristoneura fumiferana, UniProt O77240)
Test: cell-based
# output: bare number, implied unit nM

>  <Molecule>
CCCC(N(NC(=O)c1ccc2c(c1CC)OCCO2)C(=O)c1cc(C)cc(C)c1)C(C)(C)C (stereo not shown)

>  <Unit Abbreviation>
nM

>  <EC50>
10

$$$$
>  <Molecule>
CCC(N(NC(=O)c1cccc(OC)c1C)C(=O)c1cc(OC)c(C)c(OC)c1)C(C)(C)C (stereo not shown)

>  <Unit Abbreviation>
nM

>  <EC50>
193

$$$$
>  <Molecule>
COc1cccc(C(=O)NN(C(=O)c2cc(C)cc(C)c2)C(C)(C)C)c1C

>  <Unit Abbreviation>
nM

>  <EC50>
325

$$$$
>  <Molecule>
CCc1ccc(C(=O)NN(C(=O)c2cc(C)cc(C)c2)C(C)(C)C)cc1

>  <Unit Abbreviation>
nM

>  <EC50>
190

$$$$
>  <Molecule>
CCc1c(C(=O)NN(C(=O)c2cc(C)cc(C)c2)C(CC)C(C)(C)C)ccc2c1OCCO2 (stereo not shown)

>  <Unit Abbreviation>
nM

>  <EC50>
5

$$$$

Data request: Tell me measured EC50 for CCCCC(N(NC(=O)c1cccc(OC)c1C)C(=O)c1cc(OC)c(C)c(OC)c1)C(C)(C)C (stereo not shown) please.
Data returned: 70

Data request: Tell me measured EC50 for CCOC(=O)C(C)(C)N(NC(=O)c1cccc(OC)c1CC)C(=O)c1cc(C)cc(C)c1 please.
Data returned: 2450

Data request: Tell me measured EC50 for CCC(N(NC(=O)c1ccc2c(c1C)OCCO2)C(=O)c1cc(C)cc(C)c1)C(C)(C)C (stereo not shown) please.
Data returned: 3

Data request: Tell me measured EC50 for CCc1c(OC)cccc1C(=O)NN(C(=O)c1cc(C)cc(C)c1)C(C)(C)C=NO please.
Data returned: 1880

Data request: Tell me measured EC50 for CCc1c(C(=O)NN(C(=O)c2cc(C)cc(Cl)c2)C(C)(C)C)ccc2c1OCCO2 please.
Data returned: 36

Data request: Tell me measured EC50 for CCCC(N(NC(=O)c1ccc2c(c1C)OCCO2)C(=O)c1cc(C)cc(C)c1)C(C)(C)C (stereo not shown) please.
Data returned: 4

Data request: Tell me measured EC50 for CCC(N(NC(=O)c1cccc(OC)c1C)C(=O)c1cc(C)cc(C)c1)C(C)(C)C (stereo not shown) please.
Data returned: 25

Data request: Tell me measured EC50 for CCc1ccc(C(=O)NN(C(=O)c2cc(C)cc(C)c2)C(C)(C)C)c(F)c1 please.
Data returned: 165

Data request: Tell me measured EC50 for CCC(N(NC(=O)c1ccc2c(c1C)OCCO2)C(=O)c1cc(OC)c(C)c(OC)c1)C(C)(C)C (stereo not shown) please.
Data returned: 13

====

Measured fold induction at 33 µM, listed per entry for reference.
System Name: Bombyx mori EcR (VP16 fusion, CVBE switch construct) (Bombyx mori)
Sequence (P49881 86-606): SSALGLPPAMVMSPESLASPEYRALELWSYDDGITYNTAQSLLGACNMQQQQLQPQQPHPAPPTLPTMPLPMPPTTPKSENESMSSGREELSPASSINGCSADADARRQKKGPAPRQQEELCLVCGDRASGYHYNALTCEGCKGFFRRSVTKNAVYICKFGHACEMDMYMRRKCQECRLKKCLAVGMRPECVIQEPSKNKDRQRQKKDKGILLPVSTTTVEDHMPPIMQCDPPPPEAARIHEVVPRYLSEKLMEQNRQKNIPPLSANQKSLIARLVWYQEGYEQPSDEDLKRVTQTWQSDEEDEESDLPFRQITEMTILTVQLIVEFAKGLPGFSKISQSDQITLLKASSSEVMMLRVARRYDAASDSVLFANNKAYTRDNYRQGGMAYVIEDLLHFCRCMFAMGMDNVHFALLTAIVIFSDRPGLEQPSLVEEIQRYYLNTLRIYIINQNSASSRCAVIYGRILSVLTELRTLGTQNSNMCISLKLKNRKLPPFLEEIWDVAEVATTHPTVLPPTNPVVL
Sequence (P19793 1-462 partner): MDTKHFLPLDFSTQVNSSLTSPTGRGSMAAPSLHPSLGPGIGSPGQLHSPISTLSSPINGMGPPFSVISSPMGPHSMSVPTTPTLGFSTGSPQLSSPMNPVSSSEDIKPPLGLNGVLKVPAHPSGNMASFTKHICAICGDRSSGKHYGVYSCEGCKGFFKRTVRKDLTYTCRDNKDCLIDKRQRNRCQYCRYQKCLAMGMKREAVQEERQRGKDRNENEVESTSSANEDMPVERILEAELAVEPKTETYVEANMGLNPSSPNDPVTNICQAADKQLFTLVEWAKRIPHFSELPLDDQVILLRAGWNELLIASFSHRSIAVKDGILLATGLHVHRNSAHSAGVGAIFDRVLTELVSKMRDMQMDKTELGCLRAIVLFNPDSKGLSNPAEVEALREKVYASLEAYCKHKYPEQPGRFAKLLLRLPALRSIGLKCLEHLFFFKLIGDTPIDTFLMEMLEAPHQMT
Test: Z3 Assay (HEK-293 cells with CVBE and 6XEcRE LacZ, β-galactosidase reporter)
Assay Setup: HEK293, read-out: Fold Induction, Z3 Assay, 33 uM
Please respond with just the number, no unit label.

Worked cases, answers included:
>  <Compound>
COc1cc(C(=O)N(NC(=O)c2ccc3c(c2C)OCCO3)C(C)(C)C#N)cc(OC)c1C

>  <fold induction at 33 µM>
302

$$$$
>  <Compound>
CCC(N(NC(=O)c1cccc(OC)c1C)C(=O)c1cc(OC)c(C)c(OC)c1)C(C)(C)C (stereo not drawn)

>  <fold induction at 33 µM>
701

$$$$
>  <Compound>
COc1cccc(C(=O)NN(C(=O)c2cc(C)cc(C)c2)C(C)(C)C)c1CO

>  <fold induction at 33 µM>
1770

$$$$

Data request: Tell me measured fold induction at 33 µM for COc1cccc(C(=O)NN(C(=O)c2cc(C)cc(C)c2)C(C)(C)C)c1CSC please.
Data returned: 769

Data request: Tell me measured fold induction at 33 µM for CCc1ccc(C(=O)NN(C(=O)c2cc(C)cc(C)c2)C(C)(C)C)c(F)c1 please.
Data returned: 596

Data request: Tell me measured fold induction at 33 µM for CCc1c(OC)cccc1C(=O)NN(C(=O)c1cc(C)cc(C)c1)C(C)(C)CO[Si](C)(C)C(C)(C)C please.
Data returned: 74

Data request: Tell me measured fold induction at 33 µM for CCc1c(OC)cccc1C(=O)NN(C(=O)c1cc(C)cc(C)c1)C(C)(C)C(=O)O please.
Data returned: 7

Data request: Tell me measured fold induction at 33 µM for COc1cccc(C(=O)NN(C(=O)c2cc(C)cc(C)c2)C(C)(C)C)c1COC(C)=O please.
Data returned: 571

Data request: Tell me measured fold induction at 33 µM for Cc1cc(C)cc(C(=O)N(NC(=O)c2ccc3c(c2C)OCCO3)C(C)(C)C)c1 please.
Data returned: 1500

Data request: Tell me measured fold induction at 33 µM for CCc1c(OC)cccc1C(=O)NN(C(=O)c1cc(C)cc(C)c1)C(C)(C)COC please.
Data returned: 1070

Data request: Tell me measured fold induction at 33 µM for CCC(N(NC(=O)c1cccc(OC)c1C)C(=O)c1cc(C)cc(C)c1)C(C)(C)C (stereo not drawn) please.
Data returned: 722

Data request: Tell me measured fold induction at 33 µM for CCc1c(OC)cccc1C(=O)NN(C(=O)c1cc(C)cc(C)c1)C(C)(C)C=O please.
Data returned: 879

Data request: Tell me measured fold induction at 33 µM for C=CCOCc1c(OC)cccc1C(=O)NN(C(=O)c1cc(C)cc(C)c1)C(C)(C)C please.
Data returned: 1280
